target: T1, mouse TEAD4(210-427) (mouse, UniProt Q62296 210-427); experiment: SPR; GST-hTEAD1 or mTEAD4 amine-coupled to a CM5 chip (10 mM MES pH 6.4), peptides as analytes; 10 mM HEPES, 150 mM NaCl, 0.05% Tween-20, pH 7.4, 20 °C, 30 µL/min; steady-state fit, 1:1 model; settings: both partners purified
T1 construct: mouse TEAD4, residues 210-427; The tag was cleaved with 3C protease only for the crystallisation; nothing is said for SPR and FP; also called mTEAD4; source: E. coli BL21 DE3 RIL, purified (His Trap, SEC)
T1 sequence (Q62296 210-427): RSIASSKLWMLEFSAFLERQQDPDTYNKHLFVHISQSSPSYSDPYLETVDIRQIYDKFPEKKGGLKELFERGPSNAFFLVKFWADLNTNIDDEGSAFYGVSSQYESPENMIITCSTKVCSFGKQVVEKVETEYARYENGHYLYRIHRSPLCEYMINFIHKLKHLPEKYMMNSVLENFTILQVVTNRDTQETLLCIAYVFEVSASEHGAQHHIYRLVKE
Ends that are not written are not given here.
measure_name: pKd
Note on pKd: it is the negative log10 of concentration, concentration in mol/L.

Dear colleague, I am looking for the recorded pKd of the following binder: Ac-SVEDHFAKALGDTWLQIKAA (VGL4 two-helix motif with E at 235, not cyclised; numbers count on: mouse VGL4 as in PDB 4LN0; Synthesised on Rink amide resin: C-terminal amide surmised; also called linear version of 4E; source: synthetic peptide) [peptide 4E(open), acetylated]
5.62
